B1: Caulobacter ParB omega fusion; a variant is named by its letters at X, in order, B8GW30 (parent)
chain: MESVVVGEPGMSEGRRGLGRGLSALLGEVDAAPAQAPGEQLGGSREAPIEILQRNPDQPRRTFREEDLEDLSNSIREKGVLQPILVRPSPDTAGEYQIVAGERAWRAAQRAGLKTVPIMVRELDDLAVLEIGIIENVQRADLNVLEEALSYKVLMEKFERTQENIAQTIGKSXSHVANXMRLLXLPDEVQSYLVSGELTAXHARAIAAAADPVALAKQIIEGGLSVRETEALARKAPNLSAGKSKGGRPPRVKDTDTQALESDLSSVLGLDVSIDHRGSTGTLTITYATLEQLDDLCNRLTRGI

Variants of: B1
ASSAY_EXPLANATION: one-hybrid fitness for binding parS DNA (scaled: cognate 1, non-cognate 0); higher = stronger binding
MEASUREMENT_SETUP: with parS DNA site
Whole data set: some 81,000 sequences, median “one-hybrid fitness for binding parS DNA” near -0.17, cut for the highest 2% near 0.51. Many of the other results were omitted from the sample, so the highest values are more common in it than they were.
Here the recorded one-hybrid fitness for binding parS DNA is given for each entry.

Here's what some known entries look like.
TWRH | ≤ 0.2
ITIY | ≤ 0.2
IAPF | ≤ 0.2
RAGD | ≤ 0.2

Let us examine a further case.
stdin: Report one-hybrid fitness for binding parS DNA, nothing else, for this variant: RMGD
stdout: ≤ 0.2
